# System: CRL-7250
# protocol_summary: Cytotoxic Profiling of Annotated Libraries Using Quantitative High-Throughput Screening (AID 1296008); also: nearly all actives have a fitted effect of over 60% in size
# experimental_conditions: Five cell lines viability, CellTiter-Glo ATP luminescence, 48-72 h
Inconclusive results are not listed. Active and inactive are the calls of the source. Calls follow the shape of the dose curve; as a rule, active = well fitted inhibition curve with a large enough effect; inconclusive = small, poorly fitted or top-dose-only effect; inactive = flat fitted curve, though single readings scatter. Non-standard residues stand in square brackets, D forms with d. Residues, ends and D or L forms follow the SMILES beside them. *: point of attachment. Nva = CCC[C@H](N)C(=O)O; Cbz = O=C(OCc1ccccc1)*
Outcome codes: y for active, n for inactive

# compound, cat
records = [
    ("CC(=O)N[C@@H]1[C@H](O[C@@H]2c3ccc(c(Cl)c3)Oc3cc4cc(c3O[C@H]3O[C@H](CO)[C@@H](O)[C@H](O)[C@H]3NC(=O)CCCCCCCC(C)C)Oc3ccc(cc3Cl)C[C@H]3NC(=O)[C@H](N)c5ccc(O)c(c5)Oc5cc(O)cc(c5)[C@H](NC3=O)C(=O)N[C@H]4C(=O)N[C@H]3C(=O)N[C@@H]2C(=O)N[C@@H](C(=O)O)c2cc(O)cc(O[C@H]4O[C@H](CO)[C@@H](O)[C@H](O)[C@H]4O)c2-c2cc3ccc2O)O[C@H](CO)[C@@H](O)[C@@H]1O", "n"),
    ("CN(C)CC[C@H](c1ccc(Cl)cc1)c1ccccn1", "n"),
    ("Cn1cc(CNCC2CCN(c3ncc(C(=O)NO)cn3)CC2)c2ccccc21", "y"),
    ("C[C@@H](Cc1cc2c(c(C(N)=O)c1)N(CCCO)CC2)NCCOc1ccccc1OCC(F)(F)F", "y"),
    ("CC(C)N(CC[C@H](c1ccccc1)c1cc(CO)ccc1O)C(C)C", "n"),
    ("c1coc(CNc2ncnc3nc[nH]c23)c1", "n"),
    ("COc1ccc2c(c1OC)C(=O)OC2[C@H]1c2c(cc3c(c2OC)OCO3)CCN1C (some centres not stated)", "y"),
    ("Cc1ncc(-c2ccnc(Nc3ccc(S(C)(=O)=O)cc3)n2)n1C(C)C", "y"),
    ("O=C(Nc1nnc(-c2ccco2)o1)c1cc(-c2ccccc2)nc2ccccc12", "y"),
    ("CCOC(=O)N1CCN([N+]([O-])=NOc2ccc([N+](=O)[O-])cc2C#N)CC1", "y"),
    ("COc1cc([C@@H]2c3cc4c(cc3[C@H](O)[C@H]3COC(=O)[C@@H]23)OCO4)cc(OC)c1OC", "y"),
    ("C=CC(=O)Nc1cccc(Nc2nc(NC3CCC(N(C)C)CC3)nc3c2ncn3C(C)C)c1 (configuration not stated)", "y"),
    ("Nc1ccc(C(=O)Nc2cccc(-c3nc(N4CCOCC4)c4oc5ncccc5c4n3)c2)cn1", "n"),
    ("CCC[C@@H](C=O)NC(=O)[C@H](CC(C)C)NC(=O)[C@H](CC(C)C)NC(=O)OCc1ccccc1 (Cbz-Leu-Leu-[Nva]-aldehyde)", "y"),
    ("C[N+]1(C)[C@@H]2C[C@@H](OC(=O)C(O)(c3cccs3)c3cccs3)C[C@H]1[C@@H]1O[C@@H]12", "n"),
    ("CN(C)CCN1C(=O)c2cccc3cc(N)cc(c23)C1=O", "y"),
    ("O=C(C[C@@H]1CC=CCCC(=O)O[C@H](c2ccccc2)CNC1=O)NCc1ccc(Cl)cc1", "n"),
    ("CCC(C=C[C@@H]1OC(=O)C=C[C@H]1C)=C[C@H](C)CC=CC(C)=C[C@@H](C)C(=O)[C@@H](C)[C@H](O)[C@@H](C)CC(C)=CC(=O)O", "y"),
    ("CCN(CC)CCNC(=O)c1c(C)[nH]c(C=C2C(=O)Nc3ccc(F)cc32)c1C", "y"),
    ("O=C(Nc1cccc(Nc2ncc(Br)c(NCCc3cnc[nH]3)n2)c1)N1CCCC1", "y"),
    ("C[C@H](NC(=O)C(C#N)=Cc1cccc(Br)n1)c1ccccc1", "y"),
    ("CCCCC(=O)O[C@]1(C(=O)CO)[C@@H](C)C[C@H]2[C@@H]3CCC4=CC(=O)C=C[C@]4(C)[C@@]3(F)[C@@H](O)C[C@@]21C", "n"),
    ("COc1cccc2c1C(=O)c1c(O)c3c(c(O)c1C2=O)C[C@@](O)(C(=O)CO)C[C@H]3O[C@H]1C[C@H](N)[C@H](O)[C@H](C)O1", "y"),
    ("CS[C@H]1SC[C@@H]2C(=O)N(C)[C@H](C(C)C)C(=O)OC[C@H](NC(=O)c3cnc4ccccc4n3)C(=O)N[C@H](C)C(=O)N(C)[C@@H]1C(=O)N(C)[C@H](C(C)C)C(=O)OC[C@H](NC(=O)c1cnc3ccccc3n1)C(=O)N[C@H](C)C(=O)N2C", "y"),
    ("Cc1ccc2nc(NCCN)c3ncc(C)n3c2c1", "y"),
    ("CC(=O)N1CCN(c2ccc(OCc3nn(C)c(C)c3-c3cccc4c(CCCOc5cccc6ccccc56)c(C(=O)O)n(Cc5cccnc5)c34)cc2)CC1", "n"),
    ("CC(Cc1ccc(O)c(O)c1)(NN)C(=O)O (configuration not stated)", "n"),
    ("O=C(O)c1ccc(Nc2ncc3c(n2)-c2ccc(Cl)cc2C(c2c(F)cccc2F)=NC3)cc1", "n"),
    ("NC(=O)c1cccc(-c2cccc(OC(=O)NC3CCCCC3)c2)c1", "n"),
    ("CC(C)c1cnn2c(NCc3ccccc3)cc(NCCCCCCN)nc12", "n"),
    ("CC(=O)C1=C(O)C=C2Oc3c(C(C)=O)c(O)c(C)c(O)c3C2(C)C1=O (configuration not stated)", "n"),
    ("CC(C=CC(=O)NO)=C[C@@H](C)C(=O)c1ccc(N(C)C)cc1", "y"),
]

====

# protocol_summary: qHTS of pediatric cancer cell lines to identify multiple opportunities for drug repurposing: Primary screen for BT-12 cells (AID 1347101); also: nearly all actives have a fitted effect of over 25% in size
# experimental_conditions: BT-12 viability, CellTiter-Glo luminescence, 48 h; series mostly up to 57.3 µM
Records with an inconclusive call do not appear. Calls of active or inactive are those of the source. The call rests on the fitted dose curve; in most records, active means well fitted cell-killing curve with a large enough effect; inconclusive means small, poorly fitted or top-dose-only effect; inactive means flat fitted curve, though single readings scatter.
Possible outcomes: true (1) for active, false (0) for inactive

# compound, cat
records = [
    ("CCCCCCCCCCCCc1ccc(S(=O)(=O)Nc2nncs2)cc1", "false (0)"),
    ("N[C@H]1CN(c2c(F)cc3c(=O)c(C(=O)O)cn(C4C[C@@H]4F)c3c2Cl)CC12CC2 (stereo partly drawn)", "false (0)"),
    ("COc1ccnc2[nH]cc(C(=O)C(=O)N3CCN(C(=O)c4ccccc4)C[C@@H]3C)c12", "false (0)"),
    ("CC(=O)OCC(=O)[C@@]1(O)CC[C@H]2[C@@H]3CCC4=CC(=O)CC[C@]4(C)[C@@H]3C(=O)C[C@@]21C", "false (0)"),
    ("Cn1c(Nc2ccc(C(F)(F)F)cc2)nc2cc(Oc3ccnc(-c4ncc(C(F)(F)F)[nH]4)c3)ccc21", "true (1)"),
    ("CC(=O)O[C@H]1C[C@@H]2CC[C@H]3[C@H]4C[C@H]([N+]5(C)CCCCC5)[C@@H](OC(C)=O)[C@@]4(C)CC[C@@H]3[C@@]2(C)C[C@H]1N1CCCCC1", "false (0)"),
    ("CC(C)OC(=O)[C@H](C)N[P@](=O)(OC[C@H]1O[C@@H](n2ccc(=O)[nH]c2=O)[C@](C)(F)[C@H]1O)Oc1ccccc1", "false (0)"),
    ("COc1ccc2c(c1OC)C(=O)OC2[C@H]1c2c(cc3c(c2OC)OCO3)CCN1C (stereo partly drawn)", "true (1)"),
]

====

# parasite growth, % of control (lower = inhibition) annotations
# protocol_summary: qHTS profiling of the MIPE4 collection as inhibitors of Plasmodium falciparum (DD2) proliferation (Rep 2) (AID 743346)
# experimental_conditions: P. falciparum Dd2 in erythrocytes, SYBR Green DNA, 72 h; at 28.5 µM (top of the series) unless noted
value_kind: parasite growth, % of control (lower = inhibition) (%)

# compound, experimental_value
data = [
    ("CN(C)CC[C@H](c1ccc(Cl)cc1)c1ccccn1", 36.2),
    ("Cc1ccccc1C(=O)Nc1ccc(C(=O)N2CCCC(O)c3cc(Cl)ccc32)c(C)c1 (centres undefined)", 46),
    ("CC(C)(O)CC[C@@H](O)[C@](C)(O)[C@H]1CC[C@@]2(O)C3=CC(=O)[C@@H]4C[C@@H](O)[C@@H](O)C[C@]4(C)[C@@H]3CC[C@]12C", 122),
    ("CC1=C(C(=O)Nc2cc3cn[nH]c3cc2F)C(c2ccc(Cl)cc2F)N=C(c2ccnc(Cl)c2)N1 (centres undefined)", 21.1),
]

====

# protocol_summary: qHTS of pediatric cancer cell lines to identify multiple opportunities for drug repurposing: Confirmatory screen for NB-EBc1 cells (AID 1347115);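 also: cells exposed to compound for 48 h before the viability read; nearly all actives have a fitted effect of over 45% in size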
# experimental_conditions: NB-EBc1 neuroblastoma cells, viability (cytotoxicity); series mostly up to 45.9 µM
Records with an inconclusive call do not appear. Active and inactive are the calls of the source. The call rests on the fitted dose curve; in most records, active means well fitted cell-killing curve with a large enough effect; inconclusive means small, poorly fitted or top-dose-only effect, or effect the other way; inactive means no such curve, though single readings can be large or run the other way. Residues, ends and D or L forms follow the SMILES beside them. *: point of attachment. Cbz = O=C(OCc1ccccc1)*
Possible outcomes: 1 (active), -1 (inactive)

# compound, cat
data = [
    ("CNC(=O)c1ccc(Nc2cc(Nc3ccccc3S(=O)(=O)C(C)C)c3cc[nH]c3n2)nc1", 1),
    ("C[C@H](NCc1ccc2c(c1)nc(NC(=O)c1ccc(-c3cn[nH]c3)s1)n2CCc1ccccc1)C(C)(C)C", 1),
    ("C=C1C(=CC=C2CCC[C@]3(C)[C@@H]([C@H](C)CCCC(C)(C)O)CC[C@@H]23)C[C@@H](O)C[C@@H]1O", 1),
    ("NS(=O)(=O)OC[C@@H]1C[C@@H](n2ccc3c(N[C@H]4CCc5ccccc54)ncnc32)C[C@H]1O", -1),
    ("C[C@@H](Oc1ccc2[nH]nc(C=Cc3cnn(CCO)c3)c2c1)c1c(Cl)cncc1Cl", 1),
    ("CC(C)C[C@@H](C=O)NC(=O)[C@H](CC(C)C)NC(=O)[C@H](CC(C)C)NC(=O)OCc1ccccc1 (Cbz-Leu-Leu-Leu-aldehyde)", 1),
    ("COc1ccc(C=Cc2cc(OC)c(OC)c(OC)c2)cc1NC(=O)[C@H](N)CO", 1),
    ("C#CCC(Cc1cnc2nc(N)nc(N)c2n1)c1ccc(C(=O)N[C@@H](CCC(=O)O)C(=O)O)cc1 (stereo not given in full)", 1),
    ("COC(=O)C=CC(=O)OC", 1),
    ("CC(C=CC(=O)NO)=C[C@@H](C)C(=O)c1ccc(N(C)C)cc1", 1),
]
